Reference source: ChEMBL document CHEMBL1201862

Test system: HL-60
procedureSummary: NCI tumour cell line growth inhibition, 48 h
Calls of active or inactive are those of the source. Rule as the data show it: active = GI50 up to about 1.1 µM and inactive = higher.
valueType: GI50

Observe how each entry below is paired with its result.
[[record]]
compound = "O=S(=O)(NC1CCCCC1)c1ccc2c(c1)OCCOCCOCCOCCO2"
assayedtarget = "HL-60"
testresult = "> 100 µM (inactive)"

[[record]]
compound = "CCOC(=O)C1C(c2ccc(OC)cc2)c2c(n[nH]c2O)CC1(C)O (stereo unspecified)"
assayedtarget = "HL-60"
testresult = "> 100 µM (inactive)"

[[record]]
compound = "CN(C)CCCOC(=O)C(O)(Cc1ccccc1)C1CC1 (stereo unspecified)"
assayedtarget = "HL-60"
testresult = "> 100 µM (inactive)"

[[record]]
compound = "O=C(c1cccc(OCc2ccccc2)c1OCc1ccccc1)N1CCSC1=S"
assayedtarget = "HL-60"
testresult = "5.92 µM (inactive)"


Task: Specify measured GI50 for COC1=CC2(C=CC1=O)CCNC1=C2C(=O)c2nc[nH]c2C1=O (stereo unspecified) .
Output: > 100 µM (inactive)

Task: Specify measured GI50 for CC(=O)n1cc(CC(C)O)c(=O)[nH]c1=O (stereo unspecified) .
Output: > 100 µM (inactive)

Task: Specify measured GI50 for CC1(C)[C@@H]2C[C@H]1c1cnc(-c3ccccn3)cc1C2[C@@H]1c2cc(-c3ccccn3)ncc2[C@@H]2C[C@H]1C2(C)C (stereo partly specified) .
Output: 36.4 µM (inactive)

Task: Specify measured GI50 for `Cc1ccc(C(=O)CC2=Nc3nnc(CCCCCCCc4nnc5n4C(=O)C(CC(=O)c4ccc(C)cc4)=N5)n3C2=O)cc1` .
Output: > 100 µM (inactive)

Task: Specify measured GI50 for `Clc1cc(Br)c2c3c(c(Br)cc(Cl)c13)C(Br)=C2Br` .
Output: 19.1 µM (inactive)

Task: Specify measured GI50 for O=C(O)C1C2OC(C(Br)C2Br)C1C(=O)O (stereo unspecified) .
Output: > 100 µM (inactive)

Task: Specify measured GI50 for COc1ccc(C2(CC(C)O)SCCCS2)cc1 (stereo unspecified) .
Output: 37.2 µM (inactive)
